Provenance of the data: PubChem BioAssay (Tox21)

test: qHTS assay to identify small molecule HDAC inhibitors (AID 1259364); settings: HCT-116 HDAC-Glo I/II luminescence, 2 h; series mostly up to 92.4 µM;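 also: wild-type HCT-116 cells with endogenous class I/II HDAC activity; top concentration of the series differs between compounds; nearly all actives have a fitted effect of over 45% in size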
Results filed as inconclusive are left out. Calls of active or inactive are those of the source. Calls follow the shape of the dose curve; as a rule, active = well fitted inhibition curve with a large enough effect in the repeat runs; inconclusive = weak or mixed curves; inactive = flat fitted curve, though single readings scatter.
measured-quantity: outcome

molecule | readout-value
C#CCN(C)[C@H](C)Cc1ccccc1 | inactive
CC(C)(C)OOC(C)(C)C | inactive
COC(=O)NC(=S)Nc1ccccc1NC(=S)NC(=O)OC | inactive
C#CC(C)(C)NC(=O)c1cc(Cl)cc(Cl)c1 | inactive
CC1C=[C-]C=C1.[C-]#[O+].[C-]#[O+].[C-]#[O+].[Mn] | inactive
CCC(C)(CC)c1cc(NC(=O)c2c(OC)cccc2OC)on1 | inactive
COC(=O)c1ccccc1N | inactive
CC(C)N1C(=O)c2ccccc2NS1(=O)=O | inactive
Cc1ccc(N)cc1Cl | inactive
O=c1n(Cl)c(=O)n(Cl)c(=O)n1Cl | inactive
COC(=O)NS(=O)(=O)c1ccc(N)cc1 | inactive
CC(Oc1ccc(Cl)cc1Cl)C(=O)O (stereo not given) | inactive
CCCCCCCCCl | inactive
O=c1[nH]c(=O)[nH]c(=O)[nH]1 | inactive
CCc1cccc(C)c1N(C(=O)CCl)C(C)COC (stereo not given) | inactive
c1cc2c3c(cccc3c1)CC2 | inactive
Nc1ccc(Oc2ccc(N)cc2)cc1 | inactive
CC(C)=C[C@@H]1[C@@H](C(=O)OCc2coc(Cc3ccccc3)c2)C1(C)C | inactive
CC(C)(Cl)Cl | inactive
O=S(=O)(c1ccc(Cl)cc1)c1cc(Cl)c(Cl)cc1Cl | inactive
O=NN1CCCC1 | inactive
CNC(=O)Oc1ccccc1OC(C)C | inactive
CN1C(=O)CN=C(c2ccccc2)c2cc(Cl)ccc21 | inactive
CCCCN(CCCC)SN(C)C(=O)Oc1cccc2c1OC(C)(C)C2 | inactive
Cc1cc(Cl)ccc1O | inactive
CC(NC(C)(C)C)C(=O)c1cccc(Cl)c1 (stereo not given) | inactive
ClCCBr | inactive
CCCC1COC(Cn2cncn2)(c2ccc(Cl)cc2Cl)O1 (stereo not given) | inactive
Cc1ccccc1O | inactive
CCC[CH2][Sn]([Cl])([Cl])[Cl] | inactive

---

test: qHTS assay to identify small molecule antagonists of the sonic hedgehog signaling (Shh) pathway (AID 1259369); conditions: NIH/3T3 Gli1-Luc reporter, Shh antagonist, luminescence 24 h; series mostly up to 92.4 µM; also: nearly all actives have a fitted effect of over 45% in size
Records with an inconclusive call do not appear. Calls of active or inactive are those of the source. Calls follow the shape of the full dose curve.
Outcome codes: active, inactive

compound | label
C#CC(C)(C)NC(=O)c1cc(Cl)cc(Cl)c1 | inactive
Cc1cccc([N+](=O)[O-])c1 | inactive
Cc1ccc([N+](=O)[O-])cc1C | inactive
CCCC1COC(Cn2cncn2)(c2ccc(Cl)cc2Cl)O1 (centres undefined) | active
CC(Oc1ccc(Cl)cc1Cl)C(=O)O (centres undefined) | inactive
CC(C)(Cl)Cl | inactive
O=[N+]([O-])c1ccc([As](=O)(O)O)cc1 | inactive
[O-][Cl+2]([O-])O | inactive
COC(=O)c1ccccc1N | inactive
Cn1cc(-c2ccccc2)c(=O)c(-c2cccc(C(F)(F)F)c2)c1 | inactive
C#CCN(C)[C@H](C)Cc1ccccc1 | inactive
CCC12COCN1COC2 | inactive
COc1ccc2c3c1O[C@H]1[C@@H](O)C=C[C@H]4[C@@H](C2)N(C)CC[C@@]341 | active
CCCCOC(=O)c1ccccc1C(=O)OCCCC | inactive
C=CCO | inactive
C=C(C)CCl | inactive
O=c1[nH]c2ccccc2c(=O)o1 | inactive
NCCc1ccc(O)cc1 | inactive
Cc1cc(Cl)ccc1O | active
O=NN1CCCCCCC1 | inactive
c1ccc(-c2ccccc2)cc1 | inactive
[N-]=[N+]=[N-] | inactive
CCCN(CCC)c1c([N+](=O)[O-])cc(C(F)(F)F)cc1[N+](=O)[O-] | inactive
Clc1ccccc1Cl | inactive
Clc1cccc(Cl)c1Cl | inactive
c1ccc2c(c1)Oc1ccccc1O2 | inactive
C1CN2CCN1CC2 | inactive
c1ccc(OP(Oc2ccccc2)Oc2ccccc2)cc1 | inactive
CC(C)NC(=O)N1CC(=O)N(c2cc(Cl)cc(Cl)c2)C1=O | active
O=Cc1cccc(Oc2ccccc2)c1 | inactive
Nc1ccc(Oc2ccc(N)cc2)cc1 | inactive
O=NN1CCCC1 | inactive
O=c1n(Cl)c(=O)n(Cl)c(=O)n1Cl | inactive
CCCCN(CC)C(=O)SCCC | inactive
c1cc2c3c(cccc3c1)CC2 | inactive
CC(Br)C(=O)O (centres undefined) | inactive
Cc1ccc(N)cc1N | inactive
CNC(=O)Oc1ccccc1OC(C)C | inactive
COC(=O)NC(=S)Nc1ccccc1NC(=S)NC(=O)OC | inactive
CC1OC(C)OC(C)O1 (centres undefined) | inactive
CC(C)(C)OOC(=O)c1ccccc1 | inactive
CN(C)N=O | inactive
Nc1ccc(Cc2ccc(N)cc2)cc1 | inactive
CN=C=S | active
CCCCCOC(=O)c1ccccc1C(=O)OCCCCC | inactive
Nc1ccccc1C(=O)O | inactive
CCN(CC)CCO | inactive
O=c1[nH]c(=O)[nH]c(=O)[nH]1 | inactive
CN(C)CCO | inactive
NCC(O)c1ccc(O)cc1 (centres undefined) | inactive
CCc1cccc(C)c1N(C(=O)CCl)C(C)COC (centres undefined) | inactive
CC(C)OC(=O)Nc1ccccc1 | inactive
O=S(=O)(c1ccc(O)cc1)c1ccc(O)cc1 | active
C1CC2OC2CC1C1CO1 (centres undefined) | inactive
CCNc1nc(NC(C)C)nc(SC)n1 | inactive
O=C(NC(=O)c1c(F)cccc1F)Nc1cc(Cl)c(OC(F)(F)C(F)C(F)(F)F)cc1Cl (centres undefined) | inactive
COC(=O)NS(=O)(=O)c1ccc(N)cc1 | inactive
CCOP(=S)(OCC)Oc1cnc2ccccc2n1 | active
O=[N+]([O-])c1ccc(Oc2ccc(Cl)cc2Cl)cc1 | inactive
CC(C)C1(C)N=C(c2nc3ccccc3cc2C(=O)O)NC1=O (centres undefined) | inactive
Cc1[nH]c(=O)n(C(C)(C)C)c(=O)c1Cl | inactive
CC(C)C#N | inactive
CCOP(=S)(OCC)SCCSCC | inactive
O=c1ccc(=O)[nH][nH]1 | inactive
